Molecular target: hEP2/Gqs5 (Homo sapiens, UniProt P43116)
Sequence (P43116 whole entry): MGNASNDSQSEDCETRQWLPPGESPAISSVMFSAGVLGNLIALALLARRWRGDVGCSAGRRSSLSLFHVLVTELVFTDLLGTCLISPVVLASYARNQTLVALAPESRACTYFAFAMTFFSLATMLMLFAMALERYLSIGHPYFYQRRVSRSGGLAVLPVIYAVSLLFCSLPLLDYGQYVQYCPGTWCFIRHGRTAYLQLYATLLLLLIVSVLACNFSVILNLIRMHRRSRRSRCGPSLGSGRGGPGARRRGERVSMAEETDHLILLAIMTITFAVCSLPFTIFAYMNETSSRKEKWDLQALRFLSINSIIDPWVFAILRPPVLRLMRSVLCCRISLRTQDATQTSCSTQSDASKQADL
Assay: FLIPR calcium signal, EP2
Conditions: HEK-293(EBNA) hEP2/Gqs5, read-out: EP2 Ca2+ EC50
result type: EC50 (nM)

Below are worked cases with known answers.
C#CC1=C(c2ccc(C(O)CCCCC)cc2)[C@@H](CCCc2ccc(C(=O)O)s2)CC1 (single isomer, unassigned) [compound 1] : 48
CCCCCC(O)c1ccc(C2=C(C#Cc3ccccc3)CC[C@@H]2CCCc2ccc(C(=O)O)s2)cc1 (stereo partly shown) : 513

(a) C#CC1=C(c2ccc(C(O)CCCCC)cc2)[C@@H](CCCc2ccc(C(=O)O)s2)CC1 (single isomer, unassigned) [compound 2]
(b) CCCCCC(O)c1ccc(C2=C(C#CCO)CC[C@@H]2CCCc2ccc(C(=O)O)s2)cc1 (stereo partly shown)
For the pair a and b , which entry has the numerically smaller recorded EC50? To answer, give the label that identifies your chosen option.
b
(b: 0.5 nM, a: 22 nM)

Hello, the source for this data is patent US9000032B2, in case you need it.
